Tested on: VERO cells
assay-remarks: Cytotoxicity to VERO cells
Assay type: cell-based, African green monkey (Cercopithecus Aethiops)
experimental-conditions: Table 1; read-out: IC50 (μM) Cytotoxicity VERO cells
Counter-ions that a name gives are not always drawn.
Give measured IC50 for each item. Keep answers brief.
One number for each entry, in µM.

Some molecules with known IC50 results, for comparison:
INSERT INTO assay_data (molecule, recorded_measurement) VALUES
  ('c1cc(C2=NCCN2)cc(-c2cc(-c3ccc(C4=NCCN4)cc3)no2)c1 [Compound 24, dihydrochloride]', 30.2),
  ('c1cc(C2=NCCN2)cc(-c2cc(-c3ccc(C4=NCCN4)cc3)on2)c1 [Compound 15, dihydrochloride]', 65);

Proceed to the following item.
Please provide the recorded IC50 for c1cc(C2=NCCN2)cc(-c2cc(-c3cccc(C4=NCCN4)c3)on2)c1 [Compound 34, dihydrochloride] , tested on VERO cells.
26.2

* * *

assay-remarks: Cytotoxicity to VERO cells
Assay type: cell-based, African green monkey (Cercopithecus Aethiops)
experimental-conditions: African green monkey (Cercopithecus aethiops), IC50 (μM) Cytotoxicity VERO cells
Mark 1 only for IC50 values smaller than 30 µM; exact matches and larger values are -1.

Worked examples follow.
INSERT INTO results (compound, qualitative_label) VALUES
  ('Cl.Cl.N=C(N)c1ccc(-c2cc(-c3cc(C(=N)N)ccc3Cl)no2)cc1 [Compound 20, dihydrochloride]', 1),
  ('Cl.Cl.N=C(N)c1ccc(-c2cc(-c3cccc(C(=N)N)c3)on2)cc1 [Compound 22, di hydrochloride]', -1),
  ('CC(C)NC(=N)c1ccc(-c2cc(-c3cccc(C(=N)NC(C)C)c3)no2)cc1.Cl.Cl [Compound 14, dihydrochloride]', -1),
  ('Cl.Cl.N=C(N)c1cccc(-c2cc(-c3cc(C(=N)N)ccc3[N+](=O)[O-])on2)c1 [Compound 35, dihydrochloride]', 1),
  ('COc1ccc(C(=N)N)cc1-c1cc(-c2cccc(C(=N)N)c2)on1.Cl.Cl [Compound 40, dihydrochloride]', -1);

Strictly below 30 µM in IC50? Cl.Cl.N=C(N)c1ccc(-c2cc(-c3ccc(C(=N)N)cc3[N+](=O)[O-])on2)cc1 [Compound 6, dihydrochloride]
1

Also Cl.Cl.N=C(N)c1ccc(-c2cc(-c3cc(C(=N)N)ccc3[N+](=O)[O-])no2)cc1 [Compound 19, dihydrochloride] ?
1

* * *

Give measured melting point for each item. Keep answers brief.

Some molecules with known melting point results, for comparison:
INSERT INTO results (molecule, recorded_measurement) VALUES
  ('COc1cc(C(=N)N)ccc1-c1cc(-c2ccc(C(=N)N)cc2)on1.Cl.Cl [Compound 11]', '335 to 337 °C (dec.)'),
  ('COc1cc(C(=N)N)ccc1-c1cc(-c2cccc(C(=N)N)c2)no1.Cl.Cl [Compound 18]', '241 to 246 °C');

I'm hoping you can list melting point for every molecule here, please.
1. Cl.Cl.N=C(N)c1cccc(-c2cc(-c3ccc(C(=N)N)cc3Cl)on2)c1 [Compound 17]
2. Cl.Cl.N=C(N)c1cccc(-c2cc(-c3cc(C(=N)N)ccc3[N+](=O)[O-])no2)c1 [Compound 38]
3. COc1ccc(C(=N)N)cc1-c1cc(-c2ccc(C(=N)N)cc2)on1.Cl.Cl [Compound 21]

1: 242 to 245 °C; 2: 220 °C (dec.); 3: 272 to 275 °C

I'm hoping you can list melting point for every molecule here, please.
1. Cl.Cl.N=C(N)c1ccc(-c2cc(-c3cc(C(=N)N)ccc3[N+](=O)[O-])no2)cc1 [Compound 19]
2. Cl.Cl.N=C(N)c1cccc(-c2cc(-c3cc(C(=N)N)ccc3[N+](=O)[O-])on2)c1 [Compound 35]
3. Cl.Cl.N=C(N)c1cccc(-c2cc(-c3ccc(C(=N)N)cc3Cl)no2)c1 [Compound 28]

238 to 240 °C
222 °C (dec.)
210 °C (dec.)

Where do these numbers come from? They come from patent US7951827B2.
